Data origin: patent US20250235545A1

Test: Tumor homogenate activation efficiency, non-small cell lung cancer tissue (Examples 28, 37)
Type: in vitro ADME
Settings: pH 5.0, 37° C., 2 h; Table 5
Where a SMILES comes first, the peptide text is derived from it. The star is where a group is joined. Belotecan = CC[C@@]1(O)C(=O)OCc2c1cc1n(c2=O)Cc2c-1nc1ccccc1c2CCN(C(C)C)*; X6 = CCCCCN(CCc1c2c(nc3ccccc13)-c1cc3c(c(=O)n1C2)COC(=O)[C@]3(O)CC)*; X8 = CC[C@@]1(O)C(=O)OCc2c1cc1n(c2=O)Cc2c-1nc1ccccc1c2CCN(C1CCCC1)*; Propanoyl(3-maleimido) = O=C1C=CC(=O)N1CCC(=O)*; PEG6 = NCCOCCOCCOCCOCCOCCOCCC(=O)O
Collected Percentage of release efficiency (%) Non-small cell lung cancer tissue (A549) values appear next to each entry.
Write the number in % without appending the unit.

Example entries and their recorded answers appear below.
• CC[C@@]1(O)C(=O)OCc2c1cc1n(c2=O)Cc2c-1nc1ccccc1c2CCN(C(=O)CNC(=O)[C@H](Cc1ccccc1)NC(=O)CNC(=O)CNC(=O)CCOCCOCCOCCOCCOCCOCCNC(=O)CCN1C(=O)C=CC1=O)C(C)C [MI-6PEG-GGFG-Belotecan] ({Propanoyl(3-maleimido)-PEG6}-GGFG-Belotecan) = 72.7
• CCCCCN(CCc1c2c(nc3ccccc13)-c1cc3c(c(=O)n1C2)COC(=O)[C@]3(O)CC)C(=O)CNC(=O)[C@H](CC(N)=O)NC(=O)[C@H](C)NC(=O)[C@H](C)NC(=O)CCOCCOCCOCCOCCOCCOCCNC(=O)CCN1C(=O)C=CC1=O [MI-6PEG-AANG-D4] ({Propanoyl(3-maleimido)-PEG6}-AANG-X6) = 78.7

// switching to the query compound
-- ask If you can, please state the reported Percentage of release efficiency (%) Non-small cell lung cancer tissue (A549) value of CC[C@@]1(O)C(=O)OCc2c1cc1n(c2=O)Cc2c-1nc1ccccc1c2CCN(C(=O)CNC(=O)[C@H](Cc1ccccc1)NC(=O)CNC(=O)CNC(=O)CCOCCOCCOCCOCCOCCOCCNC(=O)CCN1C(=O)C=CC1=O)C1CCCC1 [MI-6PEG-GGFG-D8] ({Propanoyl(3-maleimido)-PEG6}-GGFG-X8) .
-- reply 77.5
